test.details: Inhibition of sheep brain dynamin 1 by malachite green GTPase assay
Design: species or system Ovis aries
pIC50: −log10 of the molar value.
measurement.kind: pIC50

In [3]: df
Out[3]:
                                 smiles_text  cmp   val
 0  N=c1oc2ccccc2cc1C(=O)NCCCCNC(=O)c1cc2ccccc2oc1=N    <  3.52
 1  N=c1oc2cc(O)ccc2cc1C(=O)NCCCNC(=O)c1cc2ccc(O)cc2oc1=N    =  4.76
 2  N=c1oc2cc(O)ccc2cc1C(=O)NCCNC(=O)c1cc2ccc(O)cc2oc1=N    =  4.00
 3  N=c1oc2c(O)c(O)ccc2cc1C(=O)NCCCCNC(=O)c1cc2ccc(O)c(O)c2oc1=N    =  5.37
 4  N#C/C(=C\c1ccc(O)cc1)C(=O)NCCCNC(=O)/C(C#N)=C/c1ccc(O)c(O)c1    =  4.29
 5  N=c1oc2c(O)c(O)ccc2cc1C(=O)NCCCNC(=O)c1cc2ccc(O)c(O)c2oc1=N    =  6.35
 6  N=c1oc2cc(O)c(O)cc2cc1C(=O)NCCNC(=O)c1cc2cc(O)c(O)cc2oc1=N    =  5.22
 7  N#C/C(=C\c1ccc(C2(C(F)(F)F)N=N2)cc1)C(=O)NCCCNC(=O)/C(C#N)=C/c1ccc(O)c(O)c1    =  4.44
 8  COc1ccc(/C=C(\C#N)C(=O)NCCCNC(=O)/C(C#N)=C/c2ccc(O)c(O)c2)cc1OC    =  4.36
 9  N=c1oc2c(O)c(O)ccc2cc1C(=O)NCCCCCNC(=O)c1cc2ccc(O)c(O)c2oc1=N    =  4.72
10  N=c1oc2ccccc2cc1C(=O)NCCCNC(=O)c1cc2ccccc2oc1=N    <  3.52
11  N#C/C(=C\c1ccc(O)c(O)c1)C(=O)NCCCNC(=O)/C(C#N)=C/c1ccc(O)c(O)c1    =  5.77
12  N=c1oc2c(O)cccc2cc1C(=O)NCCCNC(=O)c1cc2cccc(O)c2oc1=N    =  4.44
13  N=c1oc2ccccc2cc1C(=O)NCCCCCCNC(=O)c1cc2ccccc2oc1=N    <  3.52
14  N=c1oc2c(O)c(O)ccc2cc1C(=O)NCCCCCCNC(=O)c1cc2ccc(O)c(O)c2oc1=N    =  4.15
